Target: TLR7/NFKb HEK cells (Homo sapiens, UniProt Q9NYK1)
Sequence (Q9NYK1 27-1049): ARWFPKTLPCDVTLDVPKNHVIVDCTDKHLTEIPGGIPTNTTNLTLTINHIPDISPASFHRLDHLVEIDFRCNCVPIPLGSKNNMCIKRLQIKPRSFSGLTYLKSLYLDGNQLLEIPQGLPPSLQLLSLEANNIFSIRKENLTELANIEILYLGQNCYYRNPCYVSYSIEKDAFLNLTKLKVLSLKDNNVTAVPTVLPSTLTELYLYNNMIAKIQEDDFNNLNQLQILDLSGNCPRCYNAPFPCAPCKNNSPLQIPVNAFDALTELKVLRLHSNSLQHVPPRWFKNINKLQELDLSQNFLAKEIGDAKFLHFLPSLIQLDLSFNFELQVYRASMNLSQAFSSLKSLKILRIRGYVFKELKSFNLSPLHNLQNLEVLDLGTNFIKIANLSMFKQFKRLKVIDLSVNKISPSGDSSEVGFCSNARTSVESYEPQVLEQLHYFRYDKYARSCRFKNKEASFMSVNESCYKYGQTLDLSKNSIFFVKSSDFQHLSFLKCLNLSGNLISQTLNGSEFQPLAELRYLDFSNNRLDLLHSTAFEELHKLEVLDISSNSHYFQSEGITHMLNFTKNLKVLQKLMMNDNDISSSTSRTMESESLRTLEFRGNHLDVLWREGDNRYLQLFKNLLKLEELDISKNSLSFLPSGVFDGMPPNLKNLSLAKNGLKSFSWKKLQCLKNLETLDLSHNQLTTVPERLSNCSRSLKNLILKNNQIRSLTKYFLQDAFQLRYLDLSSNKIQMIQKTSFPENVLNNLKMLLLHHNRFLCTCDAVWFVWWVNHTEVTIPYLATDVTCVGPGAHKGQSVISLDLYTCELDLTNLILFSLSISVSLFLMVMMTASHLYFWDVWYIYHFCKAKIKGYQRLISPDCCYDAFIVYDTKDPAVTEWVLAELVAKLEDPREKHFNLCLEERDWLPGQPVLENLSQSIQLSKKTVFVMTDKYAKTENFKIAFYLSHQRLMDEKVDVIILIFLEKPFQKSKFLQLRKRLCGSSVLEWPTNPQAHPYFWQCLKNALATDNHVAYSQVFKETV
Test: HEK Cell Assay (TLR7/NFKb reporter, Steady-Glo luciferase readout)
Details: 30 min compound preincubation, then R*48 agonist for 5 hours, read-out: Potency
Method: Example 142: HEK Cell Assay Into 384 CulturePlates (Corning 3707) was placed 5000 c/w of TLR7/NFKb HEK cells in 30 uL DMEM without Phenil red (gibco #31053) and 10% i.a. FCS and 2 mM L-ZGLutamin. The cells were incubated for 24 h at 37° C., 10% carbon dioxide and 90% relative humidity. […] The assay plate was allowed to sit for 30 min at room temperature and then the plate was read on EnVision.
pIC50: −log10 of the molar value.
reported_metric: pIC50

-- ask Look up pIC50 with TLR7/NFKb HEK cells (Homo sapiens, UniProt Q9NYK1) for this compound: "CCN(CC)CCNC(=O)C1CCN(c2ncc(F)c3nccnc23)CC1"
-- reply < 5.00

-- ask What is its pIC50 for TLR7/NFKb HEK cells (Homo sapiens, UniProt Q9NYK1)? Entry: "C[C@@H]1CN(c2ccnc3nccnc23)C[C@H](CN2CCC(N(C)C)CC2)O1"
-- reply > 6.00

-- ask What measured pIC50 is associated with CC(C(=O)N[C@@H]1C[C@H](C)CN(c2ccc(C(F)F)c3ncccc23)C1)N1CC(F)(F)C1 (stereo partly shown) on TLR7/NFKb HEK cells (Homo sapiens, UniProt Q9NYK1)?
-- reply 5.00 to 6.00

Turning now to a further record.
-- ask Record lookup: for TLR7/NFKb HEK cells (Homo sapiens, UniProt Q9NYK1), what pIC50 belongs to "CC(C)[C@H](O)C(=O)N[C@@H]1C[C@H](C)CN(c2ccc(C(F)(F)F)c3ncccc23)C1" ?
-- reply > 6.00

====

biological target: TLR7/NFKb HEK cells (Homo sapiens); test: HEK Cell Assay (TLR7/NFKb reporter, Steady-Glo luciferase readout); details: 30 min compound preincubation, then R*48 agonist for 5 hours, read-out: Potency
pIC50: −log10 of the molar value. Where a name gives a salt, the structure may show the parent alone.
// values below are reported pIC50

Sample records with pIC50:
-- ask Name the reported pIC50 value associated with the compound CC(C(=O)NC1CN(c2ccc(C#N)c3nccnc23)CC(F)(F)C1)N1CCC1 (single isomer, unassigned) [Compound 507]
-- reply > 6.00

-- ask Value lookup for pIC50; key = C[C@H]1C[C@@H](NC2CCN(C)C2=O)CN(c2ccc(Cl)c3ncccc23)C1 (single isomer, unassigned) [Compound 260]
-- reply > 6.00

-- ask So what does the record say about pIC50 for C[C@H]1C[C@@H](NC(=O)CC2CCN(C)C2)CN(c2ccc(C(F)(F)F)c3ncccc23)C1 (stereo partly shown) [Compound 283, hydrochloride] ?
-- reply > 6.00

Next:
-- ask Entry COCCN[C@@H]1C[C@H](C)CN(c2ccc(OC)c3ncccc23)C1 [Compound 190] : reported pIC50 = ?
-- reply > 6.00

-- ask // lookup pIC50 for C[C@@H]1CN(c2ccnc3nccnc23)C[C@H](CN2CCN(C)[C@@H](C)C2)O1 [Compound 53]
-- reply > 6.00

-- ask # get_value(readout='pIC50', item= N[C@@H]1C[C@H](C(F)(F)F)CN(c2ccnc3nccnc23)C1 (racemic) [Compound 84] )
-- reply 5.00 to 6.00

-- ask Given the compound CCN(CC)C1CCN(CC2CCN(c3ccnc4ccccc34)CC2)CC1 [Compound 5] , what is its reported pIC50?
-- reply 5.00 to 6.00

-- ask Requested read-out: pIC50. Entry: CC(O)C(=O)N[C@@H]1C[C@H](C)CN(c2ccc(C(F)(F)F)c3nccnc23)C1 (stereo partly shown) [Compound 292]
-- reply 5.00 to 6.00
